molecular target: NL20 human bronchial epithelial cells expressing human Z-AAT (Homo sapiens, UniProt P01009, E366K); construct: expressed in transfected cells; host or cells: NL20 human bronchial epithelial cells (NL20-SI line, doxycycline added); assay: AAT Function Assay (MSD Assay NL20-SI Cell Line); type: cell-based; conditions: functionally active AAT (AAT-hNE complex) in supernatant of NL20 cells expressing human Z-AAT; read-out: NL20 Func. (EC50)
Sequence (P01009 25-418 E366K): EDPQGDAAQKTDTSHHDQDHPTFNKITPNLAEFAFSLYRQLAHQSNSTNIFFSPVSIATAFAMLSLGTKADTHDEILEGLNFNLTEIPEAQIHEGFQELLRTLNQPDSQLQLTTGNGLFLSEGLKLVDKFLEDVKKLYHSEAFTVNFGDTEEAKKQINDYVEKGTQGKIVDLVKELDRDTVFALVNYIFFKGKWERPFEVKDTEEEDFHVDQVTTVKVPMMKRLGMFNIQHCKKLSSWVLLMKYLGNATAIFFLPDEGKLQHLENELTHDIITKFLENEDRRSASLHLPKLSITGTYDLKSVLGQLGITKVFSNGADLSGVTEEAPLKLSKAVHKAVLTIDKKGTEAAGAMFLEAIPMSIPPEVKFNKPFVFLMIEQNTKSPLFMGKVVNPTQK
pEC50: −log10 of the molar value.
Test readout: pEC50

Past entries and their recorded results:
Cc1cc(-n2c(C(C)C)c(S(C)(=O)=O)c3cc4[nH]ncc4cc32)ccc1F: 5.52 to 5.94
O=S1(=O)CCC(Cc2c(C3CCOCC3)n(-c3ccc(F)cc3)c3cc4cn[nH]c4cc23)CC1: 5.52 to 5.94
COCC(C)(C)c1c(CC2CCS(=O)(=O)CC2)c2cc3[nH]ncc3cc2n1-c1ccc(F)cc1: 5.52 to 5.94
Cc1cc(-n2c(C3CCOCC3)c(CC3CC3C(=O)O)c3cc4[nH]ncc4cc32)ccc1F (single isomer, unassigned) [Compound 102]: < 5.52

Hey, can you go through the list below and give me pEC50 for every item?
1. Cc1cc(-n2c(C3(C)COC3)c(S(C)(=O)=O)c3cc4[nH]ncc4cc32)ccc1F
2. Cc1cc(-n2c(C3CCOCC3)c(C3CC4(CC(C(=O)O)C4)C3)c3cc4[nH]nc(C)c4cc32)ccc1F (single isomer, unassigned) [Compound 128]
3. CC(C)c1c(CCC(=O)O)c2cc3cn[nH]c3cc2n1-c1ccc(F)cc1

["< 5.52", "5.52 to 5.94", "< 5.52"]
